- SYSTEM: GDP-bound KRAS wild-type protein (Homo sapiens, UniProt P01116)
- METHOD DESCRIPTION: Binding to KRAS by surface plasmon resonance (SPR), Single Cycle Kinetics
- TEST SETTINGS: GDP-bound KRAS wild-type protein, SPR Single Cycle Kinetics, 1:1 binding model
Recorded Kd values for a group of compounds are listed next.
EXPERIMENTAL READOUT: Kd (nM)

1) CCC[C@H]1C(=O)N[C@@H]([C@@H](C)CC)C(=O)N(C)CC(=O)N(C)[C@H]2C/C=C\CCN(C2=O)[C@@H](Cc2ccc(C(F)(F)F)cc2)C(=O)N(C)CC(=O)N[C@@H](CCc2cc(F)c(C(F)(F)F)c(F)c2)C(=O)N2C[C@H](OCC)C[C@H]2C(=O)NC2(CC(C)(C)C2)C(=O)N(C)[C@@H](CC(C)(C)C)C(=O)N(C)C(C(=O)N(C)C)CC(=O)N1C (some centres unmarked) [PP2730]	0.065
2) CC[C@H](C)[C@@H]1NC(=O)[C@H](CC(C)C)N(C)C(=O)C[C@@H](C(=O)N(C)C)N(C)C(=O)[C@H](C2CCCC2)N(C)C(=O)C2(CCCC2)NC(=O)[C@@H]2CCCN2C(=O)[C@H](CCc2ccc(C(F)(F)F)c(Cl)c2)NC(=O)CN(C)C(=O)[C@H](Cc2ccc(C(F)(F)F)cc2)N2CC=C(C)C[C@@H](C2=O)N(C)C(=O)CN(C)C1=O [PP0621]	2.4
3) CC[C@H](C)[C@@H]1NC(=O)[C@H](CC(C)C)N(C)C(=O)C[C@@H](C(=O)N(C)C)N(C)C(=O)[C@H](C2CCCC2)N(C)C(=O)C2(CCCC2)NC(=O)[C@@H]2CCCN2C(=O)[C@H](CCc2ccc(C(F)(F)F)c(Cl)c2)NC(=O)CN(C)C(=O)[C@H](Cc2ccc(C(F)(F)F)cc2)N2C/C=C\COC[C@@H](C2=O)N(C)C(=O)CN(C)C1=O [PP0626]	7.1
4) CC[C@H](C)C1NC(=O)[C@H](CC(C)C)N(C)C(=O)C[C@@H](C(=O)N(C)C)N(C)C(=O)[C@H](C2CCCC2)N(C)C(=O)C2(CCCC2)NC(=O)C2CCCN2C(=O)[C@@H](CCc2ccc(C(F)(F)F)c(Cl)c2)NC(=O)CN(C)C(=O)[C@@H](Cc2ccc(C(F)(F)F)cc2)N2CC/C=C\CCN(CC2=O)C(=O)CN(C)C1=O (some centres unmarked) [PP0619]	3.7
5) CC[C@H](C)[C@@H]1NC(=O)[C@H](CC(C)C)N(C)C(=O)C[C@@H](C(=O)N(C)C)N(C)C(=O)[C@H](C2CCCC2)N(C)C(=O)C2(CCCC2)NC(=O)C2CCCN2C(=O)[C@H](CCc2ccc(C(F)(F)F)c(Cl)c2)NC(=O)CN(C)C(=O)[C@H](Cc2ccc(C(F)(F)F)cc2)N2CC/C=C(/C)C[C@@H](C2=O)N(C)C(=O)CN(C)C1=O (some centres unmarked) [PP0617]	6.9

====

- Test system: human lung cancer strain NCI-H441
- METHOD DESCRIPTION: cells
- TEST SETTINGS: NCI-H441, 96 h, read-out: NCI-H441 IC50 (nM)
Recorded IC50 values for a group of compounds are listed next.
EXPERIMENTAL READOUT: IC50 (nM)

1) CCO[C@@H]1C[C@H]2C(=O)NC3(CCCC3)C(=O)N(C)[C@@H](C3CCCC3)C(=O)N(C)[C@H](C(=O)N(C)C)CC(=O)N(C)[C@@H](CC(C)C)C(=O)N[C@@H]([C@@H](C)CC)C(=O)N(C)CC(=O)N(C)[C@H]3C/C=C\CCN(C3=O)[C@@H](CC3CCC(F)(F)CC3)C(=O)N(C)CC(=O)N[C@@H](CCc3cc(F)c(C(F)(F)F)c(F)c3)C(=O)N2C1	38.6
2) CCO[C@@H]1C[C@H]2C(=O)NC3(CCC3)C(=O)N(C)[C@@H](C3CCCC3)C(=O)N(C)[C@H](C(=O)N(C)C)CC(=O)N(C)[C@@H](CC3CC3)C(=O)N[C@@H]([C@@H](C)CC)C(=O)N(C)CC(=O)N(C)[C@H]3C/C=C\CCN(C3=O)[C@@H](Cc3ccc(F)cc3)C(=O)N(C)CC(=O)N[C@@H](CCc3cc(F)c(Cl)c(F)c3)C(=O)N2C1	140
3) CCC[C@H]1C(=O)N[C@@H]([C@@H](C)CC)C(=O)N(C)CC(=O)N(C)[C@H]2C/C=C\CCN(C2=O)[C@@H](Cc2ccc(C(F)(F)F)cc2)C(=O)N(C)CC(=O)N[C@@H](CCc2ccc(Cl)c(Cl)c2)C(=O)N2C[C@H](OCC)C[C@H]2C(=O)NC2(CCC2)C(=O)N(C)[C@@H](C(CC)CC)C(=O)N(C)[C@H](C(=O)N(C)C)CC(=O)N1C	19.8
